Below: a set of entries, each annotated with reported selectivity ratio.
test: Selectivity index, ratio of CC50 for human HFF cells infected with Cowpox virus (Brighton Red) to EC50 for Cowpox virus (Brighton Red); type: toxicity, cell-based; settings: read-out: Selectivity Index

| Smiles Entry | selectivity ratio |
| --- | --- |
| NC(=S)N/N=C/c1ccc(OC(F)(F)F)cc1 | > 5.5 |
| CN(C)c1ccc(/C=N/N=c2\[nH]c(-c3ccc(F)cc3)cs2)cc1 | > 8.3 |
| NC(=S)N/N=C/c1ccc(Br)cc1F | > 2.6 |
| CC1=C(/C=C/C(C)=C/C=C/C(C)=C/C=N/[N-]C(=S)[N-]C(=S)[N-]/N=C/C=C(C)/C=C/C=C(C)/C=C/C2=C(C)CCCC2(C)C)C(C)(C)CCC1.O.[Na+].[Na+].[Na+] | < 4.9 |

Next, consider the following compound.
Req: Return reported selectivity ratio; argument: `Nc1ccn(C[C@@H](CO)OCP(=O)(O)O)c(=O)n1`
Resp: > 47.3

====

experiment: Cytotoxicity against human HFF cells infected with Cowpox virus (Brighton Red) assessed as viable cells by neutral red uptake assay; type: cell-based
Measured Endpoint: CC50

| Smiles Entry | CC50 |
| --- | --- |
| CC1=C(/C=C/C(C)=C/C=C/C(C)=C/C=N/[N-]C(=S)[N-]C(=S)[N-]/N=C/C=C(C)/C=C/C=C(C)/C=C/C2=C(C)CCCC2(C)C)C(C)(C)CCC1.O.[Na+].[Na+].[Na+] | 11.8 µM |
| NC(=S)N/N=C/c1ccc(OC(F)(F)F)cc1 | > 300 µM |

Req: Return reported CC50; argument: `Nc1ccn(C[C@@H](CO)OCP(=O)(O)O)c(=O)n1`
Resp: > 317 µM

Req: Return reported CC50; argument: `CN(C)c1ccc(/C=N/N=c2\[nH]c(-c3ccc(F)cc3)cs2)cc1`
Resp: > 300 µM

Req: Return reported CC50; argument: `NC(=S)N/N=C/c1ccc(Br)cc1F`
Resp: > 300 µM

====

experiment: Cytotoxicity against human HFF cells infected with Varicella-zoster virus Ellen assessed as viable cells after 1 hr by plaque reduction assay; format: cell-based
Measured Endpoint: CC50 at 1 h (µM)
Lab book: enter the figure in µM, no units written.

Req: Return reported CC50 at 1 h; argument: `CC1=C(/C=C/C(C)=C/C=C/C(C)=C/C=N/[N-]C(=S)[N-]C(=S)[N-]/N=C/C=C(C)/C=C/C=C(C)/C=C/C2=C(C)CCCC2(C)C)C(C)(C)CCC1.O.[Na+].[Na+].[Na+]`
Resp: 33.3

====

assay: Selectivity index, ratio of CC50 for human HFF cells infected with […] to EC50 for Varicella-zoster virus Ellen; assay type: toxicity, cell-based; details: read-out: Selectivity Index
Below: a set of entries, each annotated with reported selectivity ratio.

| Smiles Entry | Assay Value |
| --- | --- |
| CN(C)c1ccc(/C=N/N=c2\[nH]c(-c3ccc(F)cc3)cs2)cc1 | > 18.1 |

Req: Return reported selectivity ratio; argument: `Nc1nc2c(ncn2COCCO)c(=O)[nH]1`
Resp: > 90.9

====

Below: a set of entries, each annotated with reported CC50.
experiment: Cytotoxicity against human PBMC infected with Human immunodeficiency virus 1 LAV1 by MTS assay; assay type: cell-based

| Molecule | CC50 |
| --- | --- |
| Cc1cn([C@H]2C[C@H](N=[N+]=[N-])[C@@H](CO)O2)c(=O)[nH]c1=O [ZIDOVUDINE] | > 100 µM |

Next, consider the following molecule.
Req: Return reported CC50; argument: `CC1=C(/C=C/C(C)=C/C=C/C(C)=C/C=N/[N-]C(=S)[N-]C(=S)[N-]/N=C/C=C(C)/C=C/C=C(C)/C=C/C2=C(C)CCCC2(C)C)C(C)(C)CCC1.O.[Na+].[Na+].[Na+]`
Resp: 28.5 µM

====

Below: a set of entries, each annotated with reported CC50.
test: Cytotoxicity against human HFF cells infected with Human cytomegalovirus AD169 assessed as viable cells by neutral red uptake assay; format: cell-based

Req: Return reported CC50; argument: `CN(C)c1ccc(/C=N/N=c2\[nH]c(-c3ccc(F)cc3)cs2)cc1`
Resp: > 300 µM

Req: Return reported CC50; argument: `NC(=S)N/N=C/c1ccc(Br)cc1F`
Resp: > 300 µM

Req: Return reported CC50; argument: Nc1nc(O)c2ncn(COC(CO)CO)c2n1 [GANCICLOVIR]
Resp: > 100 µM

Req: Return reported CC50; argument: `NC(=S)N/N=C/c1ccc(OC(F)(F)F)cc1`
Resp: 290 µM

====

experiment: Cytotoxicity against human HFF cells infected with Vaccinia virus Copenhagen assessed as viable cells by neutral red uptake assay; assay type: cell-based
Measured Endpoint: CC50

Examples from the recorded data:
| Smiles Entry | CC50 |
| --- | --- |
| CN(C)c1ccc(/C=N/N=c2\[nH]c(-c3ccc(F)cc3)cs2)cc1 | > 300 µM |
| CC1=C(/C=C/C(C)=C/C=C/C(C)=C/C=N/[N-]C(=S)[N-]C(=S)[N-]/N=C/C=C(C)/C=C/C=C(C)/C=C/C2=C(C)CCCC2(C)C)C(C)(C)CCC1.O.[Na+].[Na+].[Na+] | 11.8 µM |
| NC(=S)N/N=C/c1ccc(OC(F)(F)F)cc1 | > 300 µM |
| NC(=S)N/N=C/c1ccc(Br)cc1F | > 300 µM |

Next, consider the following molecule.
Req: Return reported CC50; argument: `Nc1ccn(C[C@@H](CO)OCP(=O)(O)O)c(=O)n1`
Resp: > 317 µM

====

experiment: Selectivity index, ratio of CC50 for human HFF cells infected with […] to EC50 for Varicella-zoster virus Ellen after 1 hr by plaque reduction assay; assay type: toxicity, cell-based; details: read-out: Selectivity Index
Measured Endpoint: selectivity ratio at 1 h

Req: Return reported selectivity ratio at 1 h; argument: `CC1=C(/C=C/C(C)=C/C=C/C(C)=C/C=N/[N-]C(=S)[N-]C(=S)[N-]/N=C/C=C(C)/C=C/C=C(C)/C=C/C2=C(C)CCCC2(C)C)C(C)(C)CCC1.O.[Na+].[Na+].[Na+]`
Resp: 7.1

Values were extracted from ChEMBL document CHEMBL1773001.
